Test system: Streptococcus pneumoniae
measurement.protocol: Antibacterial activity against constitutive macrolide-lincosamide-streptogramin B resistant Streptococcus pneumoniae by agar microdilution method
Type: functional
reported.metric: MIC (mg/L)
Respond numerically; units are mg/L and should not be typed.

Solved entries (count: 3):
CC[C@H]1OC(=O)[C@@H](C)[C@H](O[C@@H]2C[C@](C)(OC)[C@H](OC(=O)CNC(=O)CCNCCNc3cc4c(=O)c(C(=O)O)cn(C5CC5)c4cc3Cl)[C@@H](C)O2)[C@H](C)[C@H](O[C@H]2O[C@@H](C)C[C@@H](N(C)C)[C@@H]2O)[C@@](C)(O)C[C@H](C)CN(C)[C@@H](C)[C@H](O)[C@@]1(C)O (stereo in doubt); 0.5
CCC1OC(=O)[C@H](C)[C@@H](O[C@H]2C[C@@](C)(OC)[C@@H](OC(=O)CNCCCNCCOCCOCCNc3cc4c(cc3F)c(=O)c(C(=O)O)cn4C3CC3)[C@H](C)O2)C(C)[C@@H](O[C@@H]2O[C@H](C)C[C@H](N(C)C)[C@H]2O)[C@](C)(O)C[C@@H](C)CN(C)[C@H](C)[C@@H](O)[C@]1(C)O (single isomer, unassigned); 2
CCC1OC(=O)[C@H](C)[C@@H](O[C@H]2C[C@@](C)(OC)[C@@H](OC(=O)CNC(=O)CCNCCNc3cc4c(cc3F)c(=O)c(C(=O)O)cn4C3CC3)[C@H](C)O2)C(C)[C@@H](O[C@@H]2O[C@H](C)C[C@H](N(C)C)[C@H]2O)[C@](C)(O)C[C@@H](C)CN(C)[C@H](C)[C@@H](O)[C@]1(C)O (single isomer, unassigned); 4

Next up:
Ask: Endpoint output: MIC of CC[C@H]1OC(=O)[C@@H](C)[C@H](O[C@@H]2C[C@](C)(OC)[C@H](OC(=O)CNCCCNCCOCCOCCNc3cc4c(=O)c(C(=O)O)cn(C5CC5)c4cc3Cl)[C@@H](C)O2)[C@H](C)[C@H](O[C@H]2O[C@@H](C)C[C@@H](N(C)C)[C@@H]2O)[C@@](C)(O)C[C@H](C)CN(C)[C@@H](C)[C@H](O)[C@@]1(C)O (stereo in doubt) . Value?
Result: 1
